# Target Entity: human norepinephrine transporter (Homo sapiens (Human))
# Procedure Summary: hNET binding assay ([3H]Nisoxetine)
# Reported Conditions: 10 uM; membrane from MDCK cells; read-out: hNET binding assay %-inhibition (10 uM)
Quantity: inhibition at 10 µM (%)
Answer in %, number only, no unit symbol.

Compound	inhibition at 10 µM, %
Cl.O=C(OC(c1ccccc1)C1CNC1)c1ccccc1 (centres unmarked) [KHG26771, hydrochloride]	54
COC(c1ccc(Cl)cc1)C1CNC1.Cl (centres unmarked) [KHG26753, hydrochloride]	52
COC(c1ccc(Cl)c(Cl)c1)C1CNC1.Cl (centres unmarked) [KHG26756, hydrochloride]	85
Cl.Clc1ccc(C(OCc2ccccc2)C2CNC2)cc1 (centres unmarked) [KHG26769, hydrochloride]	94

Continue with the next compound.
get_value(item= Cc1cccc(OC(c2ccc(Cl)c(Cl)c2)C2CNC2)c1.Cl (centres unmarked) [KHG26775, hydrochloride] , readout=inhibition at 10 µM) returns 100

---

Recorded melting point, one value per entry.
Answer in °C, number only, no unit symbol.

Use the examples below as a reference point.
Molecule	Measurement Units	melting point
CCOC(c1ccc(Cl)c(Cl)c1)C1CNC1.Cl (centres unmarked)	°C	156
Cl.Fc1cc(C(OCc2ccccc2)C2CNC2)ccc1Cl (centres unmarked)	°C	191

get_value(item= Cc1ccccc1OC(c1ccc(F)c(Cl)c1)C1CNC1.Cl (centres unmarked) , readout=melting point) returns 209

get_value(item= Cl.Fc1ccc(C(Oc2cccc(Cl)c2)C2CNC2)cc1Cl (centres unmarked) , readout=melting point) returns 205

---

# Target Entity: human norepinephrine transporter (Homo sapiens (Human))
# Procedure Summary: hNET reuptake assay (HEK-hNET, FDSS6000)
# Type: cell-based
# Reported Conditions: HEK-hNET cells; Table 3
Recorded IC50, one value per entry.

Compound	IC50
Cl.c1ccc(COC(c2ccccc2)C2CNC2)cc1 (stereo not drawn) [KHG26768, hydrochloride]	800 nM
Cl.Clc1ccc(C(OCc2ccccc2)C2CNC2)cc1Cl (stereo not drawn) [KHG26770, hydrochloride]	700 nM

Continue with the next compound.
get_value(item= Cl.O=C(OC(c1ccc(Cl)c(Cl)c1)C1CNC1)c1ccccc1 (stereo not drawn) [KHG26773, hydrochloride] , readout=IC50) returns 1100 nM

---

# Target Entity: human norepinephrine transporter (Homo sapiens (Human), UniProt P23975)
# Sequence (P23975 whole entry): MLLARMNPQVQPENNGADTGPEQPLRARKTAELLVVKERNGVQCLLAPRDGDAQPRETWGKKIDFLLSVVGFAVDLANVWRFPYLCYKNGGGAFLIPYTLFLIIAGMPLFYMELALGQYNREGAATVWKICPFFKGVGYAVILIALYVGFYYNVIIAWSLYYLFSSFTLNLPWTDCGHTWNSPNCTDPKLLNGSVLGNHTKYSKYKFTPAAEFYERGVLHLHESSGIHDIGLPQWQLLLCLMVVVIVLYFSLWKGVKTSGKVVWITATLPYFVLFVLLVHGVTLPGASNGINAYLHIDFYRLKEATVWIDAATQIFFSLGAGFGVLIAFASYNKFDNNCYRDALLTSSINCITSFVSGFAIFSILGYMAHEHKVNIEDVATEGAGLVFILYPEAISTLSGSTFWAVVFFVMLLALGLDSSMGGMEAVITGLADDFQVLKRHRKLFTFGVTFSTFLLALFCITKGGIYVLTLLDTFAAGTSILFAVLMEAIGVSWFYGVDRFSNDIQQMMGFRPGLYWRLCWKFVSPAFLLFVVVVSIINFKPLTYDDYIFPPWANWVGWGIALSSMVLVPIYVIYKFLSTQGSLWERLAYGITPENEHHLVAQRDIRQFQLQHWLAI
# Procedure Summary: hNET binding assay ([3H]Nisoxetine)
# Reported Conditions: 10 uM; membrane from MDCK cells; read-out: hNET binding assay %-inhibition (10 uM)
Structures can show the parent of a compound that is named as a salt.
Quantity: inhibition at 10 µM (%)
Answer in %, number only, no unit symbol.

Compound	inhibition at 10 µM / %
Clc1ccc(C(Oc2ccccc2)C2CNC2)cc1Cl (stereo not drawn) [KHG26767, hydrochloride]	100
CCOC(c1ccc(Cl)cc1)C1CNC1.Cl (stereo not drawn) [KHG26754, hydrochloride]	91

Readout inhibition at 10 µM for Cc1ccccc1OC(c1ccc(Cl)c(Cl)c1)C1CNC1.Cl (stereo not drawn) [KHG26774, hydrochloride] , test system human norepinephrine transporter (Homo sapiens (Human), UniProt P23975), was 100

Readout inhibition at 10 µM for Cl.Clc1ccc(C(OCc2ccccc2)C2CNC2)cc1Cl (stereo not drawn) [KHG26770, hydrochloride] , test system human norepinephrine transporter (Homo sapiens (Human), UniProt P23975), was 99

Readout inhibition at 10 µM for Cl.Clc1ccc(C(Oc2ccccc2)C2CNC2)cc1 (stereo not drawn) [KHG26766, hydrochloride] , test system human norepinephrine transporter (Homo sapiens (Human), UniProt P23975), was 90

Readout inhibition at 10 µM for Cl.c1ccc(COC(c2ccccc2)C2CNC2)cc1 (stereo not drawn) [KHG26768, hydrochloride] , test system human norepinephrine transporter (Homo sapiens (Human), UniProt P23975), was 84
